# Test system: U251 CNS
# experimentalDetails: NCI-60 one-dose screen, 48 h
# conditionLabel: 10 µM unless noted
This is part of a sample that, as a whole, favours compounds with a hit. Of some 83,000 tested, about 20% had one in any assay. Activity calls are given as the source filed them. The calls were made as follows: active = growth percent below 10; inactive = the rest.
Outcome codes: active, inactive

{"columns": ["compound", "subjectOfTest", "class"],
 "data": [
  ["COc1ccc(C(=O)COc2cccc(/C=C3\\COc4ccc5ccccc5c4C3=O)c2)cc1", "U251 CNS", "inactive"],
  ["CCCCCc1c(C)[nH]c(/C=C2\\N=C(c3ccc[nH]3)C=C2Oc2ccccc2)c1C", "U251 CNS", "active"],
  ["CC(=O)Nc1cc2c3c(cccc3c1)-c1ccccc1-2", "U251 CNS", "inactive"],
  ["CCCCCCCCCCOC(C)=O", "U251 CNS", "inactive"],
  ["c1ccc(-c2oc(-c3ccccc3)c3ccccc23)cc1", "U251 CNS", "inactive"],
  ["COC(=O)[C@H](CCCCNC(=O)OCc1ccccc1)NC(=O)[C@@H](NC(=O)Nc1cc(C(F)(F)F)cc(C(F)(F)F)c1)C(C)C", "U251 CNS", "active"],
  ["CCSCC1CC(O)(c2ccccc2)C(c2ccccc2)C(c2ccc(Cl)cc2)O1 (centres undefined)", "U251 CNS", "active"],
  ["Cc1ccc(/C=C(/C#N)n2nnc3ncccc32)cc1", "U251 CNS", "inactive"],
  ["COc1ccc2c(c1)C(=Nc1cc(OC)c(OC)c(OC)c1)C(=O)N2", "U251 CNS", "inactive"],
  ["COc1ccc(C(=O)/C=C/c2cccc(Nc3ccnc4cc(Cl)ccc34)c2)cc1", "U251 CNS", "active"],
  ["COc1cc(C(=O)/C=C/c2cccc(Nc3ccnc4cc(Cl)ccc34)c2)cc(OC)c1OC", "U251 CNS", "active"],
  ["CC1C(C)N(C(=O)CCl)c2ccccc2N1C(=O)CCl (centres undefined)", "U251 CNS", "active"],
  ["CN[C@@H]1C(OC2[C@H](O[C@H]3[C@H](O)[C@@H](O)[C@H](N=C(N)N)[C@@H](O)[C@@H]3N=C(N)N)OC(C)[C@]2(O)CO)OC(CO)C(O)C1O (some centres undefined)", "U251 CNS", "inactive"],
  ["O=Cc1ncc(-c2ccc(C(F)(F)F)cc2)c(NC2CCCCCC2)n1", "U251 CNS", "active"],
  ["CNCCCn1c2c(c3ccc(F)cc3c1=O)C(=O)c1cc(OC)cnc1-2", "U251 CNS", "active"],
  ["CC[n+]1c(/C=C/c2ccc(N3CCCC3)cc2)cccc1/C=C/c1ccc(N2CCCC2)cc1", "U251 CNS", "active"],
  ["Cc1cc(=O)oc2cc(OCCn3c(C)nn(-c4ccc(Cl)cc4)c3=O)ccc12", "U251 CNS", "inactive"],
  ["COc1cc2c(cc1OC)C(=O)/C(=C/c1cccc(OCC(=O)c3ccccc3)c1)C2", "U251 CNS", "inactive"],
  ["Nc1ccc2c(c1)C(=O)c1cc(Cl)c(Cl)cc1-2", "U251 CNS", "inactive"],
  ["NS(=O)(=O)c1ccc(-n2nc(-c3ccc(Br)cc3)ccc2=O)cc1", "U251 CNS", "inactive"],
  ["CCCCCc1c(C)[nH]c(/C=C2\\N=C(c3ccc[nH]3)C=C2OCc2ccccc2)c1C", "U251 CNS", "active"],
  ["CNc1nc(NC2CCCC2)nc(Sc2ccc(OC)cc2)n1", "U251 CNS", "inactive"],
  ["CC(=O)Nc1cc(C(c2ccccc2)c2ccccc2)cc(C(c2ccccc2)c2ccccc2)c1C", "U251 CNS", "inactive"],
  ["COC(=O)[C@H](Cc1cn(C)cn1)NC(=O)[C@H](Cc1ccccc1)NC(=O)Nc1cc(C(F)(F)F)cc(C(F)(F)F)c1", "U251 CNS", "active"],
  ["COc1cnc2c(c1)C(=O)c1c-2n(CCCN2CCOCC2)c(=O)c2cc(F)ccc12", "U251 CNS", "active"],
  ["COC(=O)CC1=C(c2ccc([N+](=O)[O-])cc2)CCC1=O", "U251 CNS", "inactive"],
  ["CCOc1cc(CCNS(=O)(=O)c2ccc(C)cc2)c(C(C)=O)cc1OCC", "U251 CNS", "inactive"],
  ["Nc1ccc(N=Nc2ccccc2)cc1[N+](=O)[O-]", "U251 CNS", "inactive"],
  ["O=C(C(=O)N1CCOCC1)c1cn(CCCn2cc(C(=O)C(=O)N3CCOCC3)c3ccccc32)c2ccccc12", "U251 CNS", "inactive"],
  ["COc1ccc(C(=O)COc2ccc(/C=C3\\Oc4ccc5ccccc5c4C3=O)cc2)cc1", "U251 CNS", "inactive"],
  ["CCOc1cc(/C=C/C(=O)CC(=O)/C=C/c2ccc(OC(=O)CNc3nc4ccc(OC)cc4s3)c(OCC)c2)ccc1OC(=O)CNc1nc2ccc(OC)cc2s1", "U251 CNS", "inactive"],
  ["CC(=O)Nc1c(Cl)cc2c(c1Cl)Cc1cc([N+](=O)[O-])ccc1-2", "U251 CNS", "inactive"],
  ["CN1C(=O)C(C2=NN(C=O)C(c3ccc(F)cc3)C2)C(=O)N(C)C1=O (centres undefined)", "U251 CNS", "inactive"],
  ["CNNc1ncnc2c1cnn2-c1ccc(S(N)(=O)=O)cc1", "U251 CNS", "inactive"],
  ["COc1cnc2c(c1)C(=O)c1c-2n(CCCn2ccnc2)c(=O)c2cc(F)ccc12", "U251 CNS", "active"],
  ["O=C(COc1cccc(/C=C2\\Cc3ccccc3C2=O)c1)c1ccc(Cl)cc1", "U251 CNS", "inactive"],
  ["COC(=O)[C@H](Cc1cn(C)cn1)NC(=O)[C@H](C)NC(=O)Nc1cc(C(F)(F)F)cc(C(F)(F)F)c1", "U251 CNS", "active"],
  ["Cc1nn(-c2nc3ccccc3s2)c(C)c1Oc1ccccc1O", "U251 CNS", "inactive"],
  ["O=C(/C=C/c1ccc([N+](=O)[O-])cc1)c1ccc2c3c(cccc13)CC2", "U251 CNS", "inactive"]
]}
